As an illustration, consider measured pIC50 for molecules on Cytochrome P450 2C9 (Homo sapiens).
Sequence (P11712 whole entry): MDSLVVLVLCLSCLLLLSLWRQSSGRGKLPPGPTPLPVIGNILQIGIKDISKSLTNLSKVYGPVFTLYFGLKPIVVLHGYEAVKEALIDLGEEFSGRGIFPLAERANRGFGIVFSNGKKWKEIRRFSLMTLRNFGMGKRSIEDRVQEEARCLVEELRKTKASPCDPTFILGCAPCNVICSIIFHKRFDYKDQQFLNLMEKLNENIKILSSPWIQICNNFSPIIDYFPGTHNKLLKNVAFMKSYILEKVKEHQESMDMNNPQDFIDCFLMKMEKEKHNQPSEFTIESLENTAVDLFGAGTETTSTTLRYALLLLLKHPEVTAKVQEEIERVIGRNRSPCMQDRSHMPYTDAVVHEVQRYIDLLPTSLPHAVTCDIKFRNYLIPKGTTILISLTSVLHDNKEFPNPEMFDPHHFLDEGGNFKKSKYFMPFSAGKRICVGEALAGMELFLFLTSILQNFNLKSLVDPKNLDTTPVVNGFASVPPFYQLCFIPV
Recall that pIC50 is obtained by taking minus log10 of the concentration measured in molar.

Task item: Field: pIC50 (Cytochrome P450 2C9 (Homo sapiens)). Entry: CCCCN1C(=O)[C@H](CC2CCCCC2)NC(=O)C12CCN(Cc1ccc(Oc3ccc(C(=O)O)cc3)cc1)CC2.Cl
Reply: 5.06

Task item: Field: pIC50 (Cytochrome P450 2C9 (Homo sapiens)). Entry: CCCCN1C(=O)C(CC(C)C)NC(=O)C12CCN(Cc1ccc(Oc3ccccc3)cc1)CC2.Cl (racemic)
Reply: 5.23

====

- assay comment: Half life in rat at 10 mg/kg, po
- Format: ADME, organism-based
- Design: dose 10 mg/kg, route oral
- protocol conditions: in vivo
Tick yes (1) if half-life is 50 min or greater. Tick no (0) if half-life is less than 50 min.

Task item: Exam item: decide whether the reported half-life for CCCCN1C(=O)[C@@H]([C@@H](O)C2CCCCC2)NC(=O)C12CCN(Cc1ccc(Oc3ccc(C(=O)O)cc3)cc1)CC2.Cl is at least 50 min.
Reply: no (0)

Task item: Exam item: decide whether the reported half-life for CCCCN1C(=O)C(CC2CCCCC2)NC(=O)C12CCN(Cc1ccc(Oc3ccccc3)cc1)CC2.Cl (racemic) is at least 50 min.
Reply: yes (1)

Task item: Exam item: decide whether the reported half-life for CCCCN1C(=O)C(CC(C)C)NC(=O)C12CCN(Cc1ccc(Oc3ccccc3)cc1)CC2.Cl (racemic) is at least 50 min.
Reply: yes (1)

Task item: Exam item: decide whether the reported half-life for CCCCN1C(=O)[C@H](CC2CCCCC2)NC(=O)C12CCN(Cc1ccc(Oc3ccc(C(=O)O)cc3)cc1)CC2.Cl is at least 50 min.
Reply: no (0)

Task item: Exam item: decide whether the reported half-life for CCCCN1C(=O)[C@H]([C@@H](O)C2CCCCC2)NC(=O)C12CCN(Cc1ccc(Oc3ccc(C(=O)O)cc3)cc1)CC2.Cl is at least 50 min.
Reply: no (0)

Task item: Exam item: decide whether the reported half-life for CCCCN1C(=O)[C@@H]([C@H](O)C2CCCCC2)NC(=O)C12CCN(Cc1ccc(Oc3ccc(C(=O)O)cc3)cc1)CC2.Cl [APLAVIROC HYDROCHLORIDE] is at least 50 min.
Reply: yes (1)

Task item: Exam item: decide whether the reported half-life for CCCCN1C(=O)[C@H]([C@H](O)C2CCCCC2)NC(=O)C12CCN(Cc1ccc(Oc3ccc(C(=O)O)cc3)cc1)CC2 is at least 50 min.
Reply: no (0)

====

As an illustration, consider measured IC50 for compounds on Cytochrome P450 2D6 (Homo sapiens, UniProt P10635).
Sequence (P10635 whole entry): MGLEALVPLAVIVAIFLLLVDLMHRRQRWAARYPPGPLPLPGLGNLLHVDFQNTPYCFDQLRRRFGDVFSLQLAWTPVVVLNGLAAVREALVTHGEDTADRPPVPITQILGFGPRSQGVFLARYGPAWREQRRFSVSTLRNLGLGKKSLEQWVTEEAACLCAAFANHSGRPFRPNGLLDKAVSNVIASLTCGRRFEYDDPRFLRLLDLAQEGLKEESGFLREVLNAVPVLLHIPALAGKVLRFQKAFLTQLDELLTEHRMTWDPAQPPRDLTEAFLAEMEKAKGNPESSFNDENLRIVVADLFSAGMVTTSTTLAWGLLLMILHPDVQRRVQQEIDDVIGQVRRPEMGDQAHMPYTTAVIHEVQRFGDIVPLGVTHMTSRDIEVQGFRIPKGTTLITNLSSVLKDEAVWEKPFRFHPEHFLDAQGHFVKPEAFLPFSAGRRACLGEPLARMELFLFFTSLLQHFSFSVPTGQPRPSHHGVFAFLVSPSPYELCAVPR

Task item: Entry CCCCN1C(=O)C(CC2CCCCC2)NC(=O)C12CCN(Cc1ccc(Oc3ccccc3)cc1)CC2.Cl (racemic) has what IC50?
Reply: 7.8 µM

Task item: Entry CCCCN1C(=O)[C@H](CC2CCCCC2)NC(=O)C12CCN(Cc1ccc(Oc3ccc(C(=O)O)cc3)cc1)CC2.Cl has what IC50?
Reply: > 30 µM

Task item: Entry CCCCN1C(=O)C(CC(C)C)NC(=O)C12CCN(Cc1ccc(Oc3ccccc3)cc1)CC2.Cl (racemic) has what IC50?
Reply: 4.6 µM

Task item: Entry CCCCN1C(=O)[C@@H]([C@H](O)C2CCCCC2)NC(=O)C12CCN(Cc1ccc(Oc3ccccc3)cc1)CC2.Cl has what IC50?
Reply: 9.8 µM

Task item: Entry CCCCN1C(=O)[C@@H]([C@@H](O)C2CCCCC2)NC(=O)C12CCN(Cc1ccc(Oc3ccc(C(=O)O)cc3)cc1)CC2.Cl has what IC50?
Reply: > 30 µM

Task item: Entry CCCCN1C(=O)[C@H]([C@@H](O)C2CCCCC2)NC(=O)C12CCN(Cc1ccc(Oc3ccc(C(=O)O)cc3)cc1)CC2.Cl has what IC50?
Reply: > 30 µM

Task item: Entry CCCCN1C(=O)[C@@H]([C@H](O)C2CCCCC2)NC(=O)C12CCN(Cc1ccc(Oc3ccc(C(=O)O)cc3)cc1)CC2.Cl [APLAVIROC HYDROCHLORIDE] has what IC50?
Reply: > 30 µM

Task item: Entry CCCCN1C(=O)[C@H]([C@H](O)C2CCCCC2)NC(=O)C12CCN(Cc1ccc(Oc3ccc(C(=O)O)cc3)cc1)CC2 has what IC50?
Reply: > 30 µM
